- test name: DPPH radical scavenging activity assay
- measurement parameters: Table S4, concentration not given
Measured Inhibitory rate (%), DPPH (Table S4) of individual entries

molecule | Inhibitory rate (%), DPPH (Table S4)
COc1cc(CC/C=C/C(=O)CCc2ccc(O)c(OC)c2)ccc1O | 52.84
COC(=O)C1OC(Oc2c(-c3ccc(O)cc3)oc3cc(O)cc(O)c3c2=O)C(OC2OC(C)C(O)C(O)C2O)C(OC(C)=O)C1OC(C)=O (centres unmarked) | 22.77
COc1cc(CC(O)C(O)CC2OC(CC(O)C(O)Cc3ccc(O)c(OC)c3)C3C(c4cc(OC)c(O)c(OC)c4)OC(c4cc(OC)c(O)c(OC)c4)C23)ccc1O (centres unmarked) | 50.74
COc1cc(CCC(=O)CC(O)CCc2ccc(O)c(OC)c2)ccc1O (centres unmarked) [Compound 7, hexahydrocurcumin] | 35.80
O=C1C[C@@H](c2ccccc2)Oc2cc(O)cc(O)c21 | 27.53

Hello, the source for this data is paper PMC11727410, in case you need it.
